# measurement-description: Cardiotoxicity against Sprague-Dawley rat Langendorff perfused heart assessed as reduction in left ventricular pressure by electrophysiological analysis
# Assay type: toxicity, tissue-based
# experimental-parameters: Sprague-Dawley, Langendorff perfused heart
pIC50: −log10 of the molar value.

| compound | pIC50 |
| --- | --- |
| Clc1ccc(C(Nc2ccnc3cc(Cl)ccc23)c2ccc(CN3CCNCC3)cc2)cc1 (racemic) | 5.02 |

###

# Test system: Plasmodium falciparum
# measurement-description: Antiplasmodial activity against chloroquine-resistant Plasmodium falciparum K1 infected in human erythrocytes assessed as inhibition of [3H]hypoxanthine incorporation incubated for 48 hrs prior to [3H]hypoxanthine addition measured after 48 hrs by liquid scintillation counting
# Format: functional, organism-based
pIC50: −log10 of the molar value.

| molecule | target-desc | pIC50 |
| --- | --- | --- |
| COc1ccc2nccc(NC(c3cccc(Cl)c3)c3ccc(CN4CCCC4)c(Cl)c3)c2c1 (racemic) | Plasmodium falciparum | 7.47 |
| COc1ccc2nccc(NC(c3cccc(Cl)c3)c3ccc(CN4CCOCC4)c(Cl)c3)c2c1 (racemic) | Plasmodium falciparum | 6.94 |
| COc1ccc2nccc(NC(c3ccc(Cl)cc3)c3ccc(CN4CCCC4)c(F)c3)c2c1 (racemic) | Plasmodium falciparum | 7.48 |
| Clc1cccc(C(Nc2ccnc3cc(Cl)ccc23)c2ccc(CN3CCN(c4ccnc5cc(Cl)ccc45)CC3)c(Cl)c2)c1 (racemic) | Plasmodium falciparum | 8.00 |
| COc1ccc2nccc(NC(c3ccc(Cl)cc3)c3ccc(CN4CCNCC4)cc3)c2c1 (racemic) | Plasmodium falciparum | 7.24 |
| Clc1cccc(C(Nc2ccnc3cc(Cl)ccc23)c2ccc(CN3CCCC3)c(Cl)c2)c1 (racemic) | Plasmodium falciparum | 7.72 |
| Fc1cc(C(Nc2ccnc3cc(C(F)(F)F)ccc23)c2ccc(Cl)cc2)ccc1CN1CCCC1 (racemic) | Plasmodium falciparum | 7.48 |
| Clc1ccc(C(c2ccc(Cl)cc2)(c2ccc(CN3CCCC3)cc2)N2CCN(c3ccnc4cc(Cl)ccc34)CC2)cc1 | Plasmodium falciparum | 7.04 |
| FC(F)(F)c1ccc2c(NC(c3cccc(Cl)c3)c3ccc(CN4CCCC4)c(Cl)c3)ccnc2c1 (racemic) | Plasmodium falciparum | 7.34 |

###

# System: Salmonella typhimurium
# measurement-description: Mutagenicity against Salmonella typhimurium TA100 assessed as revertants at 2 uM incubated for 90 mins followed by drug washout measured after 2 days relative to positive control
# Format: toxicity, organism-based
# experimental-parameters: salmonella enterica subsp. enterica serovar typhimurium
Entries annotated with measured Activity

| compound | value-units | Activity |
| --- | --- | --- |
| Clc1ccc(C(Nc2ccnc3cc(Cl)ccc23)c2ccc(CN3CCCC3)c(Cl)c2)cc1 (racemic) | % | 4 |
| Clc1cccc(C(Nc2ccnc3cc(Cl)ccc23)c2ccc(CN3CCCC3)cc2)c1 (racemic) | % | 2 |
| Fc1cc(C(Nc2ccnc3cc(C(F)(F)F)ccc23)c2ccc(Cl)cc2)ccc1CN1CCCC1 (racemic) | % | 4 |
| Clc1ccc(C(Nc2ccnc3cc(Cl)ccc23)c2ccc(Cn3ccnc3)cc2)cc1 (racemic) | % | 6 |

###

# measurement-description: Half life in po dosed human plasma
# Type: ADME, organism-based

| molecule | value-units | half-life |
| --- | --- | --- |
| CCN(CC)CCCC(C)Nc1ccnc2cc(Cl)ccc12 (stereo unspecified) [CHLOROQUINE] | days | 20 |

Reference source for all entries: ChEMBL document CHEMBL2169878
